target: Rap guanine nucleotide exchange factor 3 (Homo sapiens); experiment: Confirmatory qHTS for antagonist of cAMP-regulated guanine nucleotide exchange factor 3 (EPAC1) (AID 1645880); conditions: EPAC1 Rap1B-BODIPY-GDP exchange, fluorescence; note: nearly all actives have a fitted effect of over 55% in size
Inconclusive results are not listed. The source made the active and inactive calls. Calls come from the whole dose curve; as a rule, active = well fitted inhibition curve with a large enough effect; inconclusive = small, poorly fitted or top-dose-only effect; inactive = no such curve, though single readings can be large or run the other way.
Could you please pick one outcome from this set? active, inactive

Would you please look over these solved cases?
COC(=O)c1c(SC)nc2ccccc2c1OCc1ccccc1Cl    inactive
CC(=O)NC(c1ccccc1)c1nc(-c2cccs2)cs1 (stereo unspecified)    inactive
O=c1onc(-c2ccccc2)n1-c1cc(Cl)cc(Cl)c1    inactive
COc1ccc(-c2nc(N/N=C(\C)c3ccc(O)cc3)c3ccccc3n2)cc1    inactive
C=CCn1c(Cc2ccccc2)nc2c(cnn2-c2ccccc2)c1=O    inactive

Status in this test for Cc1ccccc1N=C(c1ccccc1)C1C(=O)c2ccccc2C1=O ?
inactive

# outcome recorded in this test, key = CC(C)(C)NC(=O)C(c1ccc(C(F)(F)F)cc1)n1c(=O)c(-c2ccco2)nc2ccccc21 (stereo unspecified)
active

Which outcome was assigned to Cc1cc(C)n(CCOc2ccc(Br)cc2)n1 in this test?
inactive

Kindly provide the recorded test outcome for the following molecule: Cc1ccc(-c2noc(CSc3nnnn3C3CCCCC3)n2)cc1
inactive

Identify the outcome logged in this assay for the molecule shown: Cc1ccc(C)c(Cn2cnc3ccccc3c2=O)c1
inactive

I'd appreciate the recorded outcome for NC1=C(Cl)C(=O)c2ccc(S(N)(=O)=O)cc2C1=O from this test.
active
